- measured-on: T1, NPNA6 peptide (Ac-[residues removed]-NH2) (Plasmodium falciparum (synthetic CSP …)
- T1 construct: source: synthetic peptide, bought: Innopep Inc
- protocol-description: ITC; peptide in the syringe, Fab (~10 uM) in the cell; DPBS; 25 C; single-site binding model; triplicate; apparent affinity
- test-context: both partners purified
# pKd annotations
Keep it numeric: pKd is minus log10 of the concentration in mol/L.

Recorded result, Fab356 (Fab, V domains shown, also called mAb356; source: ExpiCHO cells, purified (HiTrap Protein G, SEC)) VH: VQLVESGGGVVQPGRSLRLSCAASGFTFRNFGMHWVRQTPGKGLEWVAVIWHDGSNKFYADSVEGRFTISRDNSKNMIYLQMNSLRVEDTAIYYCARDSLFYDHDNSGYYGYWGQGTLVTVSS VL: QIVMTQSPATVSVSPGERATLSCRASRSVTSKLAWYQQKPGQAPRLLIYGASTRATGIPARFSGSGSGTEFTLTISSLQSEDFAVYFCQQYNNGFTFGPGTKVDFK , pKd: 7.52

Recorded result, Fab397 (Fab, V domains shown, also called mAb397; source: ExpiCHO cells, purified (HiTrap Protein G, SEC)) VH: EVQLVKSGGGLVKPGGSLRLSCAVSGFTFTDAWMSWVRQAPGKGPEWVGRIKSNPDGGTTDYAAPVRGRFTISRDDSKNTLYLQMNNLKTEDTAVYYCITDRDFYRSGGSWGQGTLVTV VL: DIVMTQSPLSLPVTPGEPASISCRSRQSLLYSNGDNYLDWYLQKPGQSPQLLIYLGSNRAPGVPDRFSGSGSGTDFTLKISRVEAEDVGVYYCMQTLQTPHTFGQGTKLEIK , pKd: 7.04

Recorded result, Fab311 (Fab, V domains shown, also called mAb311; source: ExpiCHO cells, purified (HiTrap Protein G, SEC)) VH: EVQLVESGGGVVPPGRSLRLSCATSGFTFSNYGMHWVRQAPGKGLEWVAIIWYDGSRNFYAASVEGRFTISRDNSKNTLYLQMNSLRVEDTAVYYCARAAYYDTSGYGDYWGQGTLVTVSS VL: ESVLTQPPSVSGAPGQTVTISCTGGSSNIGAGYDVHWYQQLPGTAPKLLIYGNINRPSGVPDRFSGSKSGTSASLAITGLQAEDEADYYCQSYDRRLSGSWVFGGGTKLTVL , pKd: 7.72

Recorded result, Fab239 (Fab, V domains shown, also called mAb239; source: ExpiCHO cells, purified (HiTrap Protein G, SEC)) VH: QVQLVESGGGVVQPGRSLRLSCAASRLTFRNFGMHWVRQTPGKGLEWVAVIWHDGSNKFYADSVEGRFTISRDNSKNTLYLQMNSLRDEDTAIYYCAKDWGGASDRVFDYWGRGTLVIVSS VL: DIQMTQSPSTLSASVGDRVTITCRASQSVSTSLAWYQQKPGKAPNLLIYQASTLYRGVPSRFSGSGSGTEFTLTIGSLQPDDFATYYCQHYNSYSRITFGQGTRLEIK , pKd: 8.00

Attention now shifts to the item below.
Recorded result, Fab399 (Fab, V domains shown, also called mAb399; source: ExpiCHO cells, purified (HiTrap Protein G, SEC)) VH: EVQLVESGGGLVQPGRSLRLSCTTSGFTFGDYAMSWFRQAPGKGLEWVGFIRSKGFGGTAEYAAFVKGRFTISRDDSRSIAYLQMTSLKPEDTAVYYCSRVGVVIATAVYWGQGTLVTVSS VL: DILMTQTPLSLSVTPGQPASISCKSSQSLLDNDGKTYLYWYLQKPGQSPQLLIYEVSNRFSGVPERFSGSGSGTDFTLKIRRVEAEDVGVYYCMQRIDLPWTFGQGTKVEIK , pKd: 7.03
